# Activity listing for each entry below
Target: Metabotropic glutamate receptor 5 (Homo sapiens)
Assay: Non-competitive antagonist activity at mGluR5 at 30 uM relative to glutamate
Format: functional
Parameters: scale not given: the % may be the effect or the level left
Value Type: Activity (%)

O=C(c1cccs1)N1CCCC2(CCCCC2)C1    2.69
O=C(N1CCN(c2nccs2)CC1)C12CC3CC(CC(C3)C1)C2    1.16
O=C(N1CCN(c2cccnc2)CC1)C12CC3CC(CC(C3)C1)C2    30.2
O=C(C1CC1)N1CCCC2(CCCCC2)C1    40.6
Cc1cc(C(F)(F)F)c2c(N)c(C(=O)c3ccc(F)cc3)oc2n1    1.58
Cc1ccc(C(=O)N2CCCC3(CCCCC3)C2)cc1    56.2
O=C(c1cnc2ccccc2n1)N1CCCC2(CCCCC2)C1    2.39
O=C(CSc1ccccc1)N1CCCC2(CCCCC2)C1    4.23
O=C(Cc1cccs1)N1CCCC2(CCCCC2)C1    52.1
COc1ccccc1N1CCN(C(=O)C23CC4CC(CC(C4)C2)C3)CC1    52
O=C(c1ccco1)N1CCCC2(CCCCC2)C1    2.64
O=C(C1CCCC1)N1CCCC2(CCCCC2)C1    26.1

###

# pIC50 listing for each entry below
Target: Metabotropic glutamate receptor 2 (Homo sapiens, UniProt Q14416)
Sequence (Q14416 whole entry): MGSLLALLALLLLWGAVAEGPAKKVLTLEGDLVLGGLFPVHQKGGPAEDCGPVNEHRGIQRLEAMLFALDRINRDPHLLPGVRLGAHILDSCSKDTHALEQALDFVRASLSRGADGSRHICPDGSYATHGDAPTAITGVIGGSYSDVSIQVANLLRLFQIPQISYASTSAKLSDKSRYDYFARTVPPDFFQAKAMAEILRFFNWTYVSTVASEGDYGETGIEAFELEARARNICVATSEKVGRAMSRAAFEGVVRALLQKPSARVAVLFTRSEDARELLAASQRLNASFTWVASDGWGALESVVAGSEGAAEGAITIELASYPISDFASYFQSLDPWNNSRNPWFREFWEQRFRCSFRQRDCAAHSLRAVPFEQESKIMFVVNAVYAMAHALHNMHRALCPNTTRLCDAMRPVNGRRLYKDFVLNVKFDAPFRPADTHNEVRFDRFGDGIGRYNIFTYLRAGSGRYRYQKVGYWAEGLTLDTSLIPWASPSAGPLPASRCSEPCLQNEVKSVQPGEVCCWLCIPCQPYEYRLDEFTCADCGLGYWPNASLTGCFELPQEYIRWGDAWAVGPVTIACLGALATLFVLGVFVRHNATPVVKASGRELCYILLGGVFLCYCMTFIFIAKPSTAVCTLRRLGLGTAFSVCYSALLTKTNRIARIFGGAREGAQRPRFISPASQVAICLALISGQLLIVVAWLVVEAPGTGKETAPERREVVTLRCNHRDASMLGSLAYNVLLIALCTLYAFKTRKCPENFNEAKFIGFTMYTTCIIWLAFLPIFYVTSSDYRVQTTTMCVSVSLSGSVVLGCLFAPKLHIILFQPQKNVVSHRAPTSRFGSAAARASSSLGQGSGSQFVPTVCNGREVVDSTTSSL
pIC50: −log10 of the molar value.
Value Type: pIC50

O=C(N1CCN(c2nccs2)CC1)C12CC3CC(CC(C3)C1)C2    < 4.52
O=C(C1CCC1)N1CCCC2(CCCCC2)C1    < 4.52

###

IC50, Metabotropic glutamate receptor 7 (Homo sapiens, UniProt Q14831), per-entry values.
Value Type: IC50

O=C(N1CCN(c2nccs2)CC1)C12CC3CC(CC(C3)C1)C2    > 30 µM
O=C(C1CCC1)N1CCCC2(CCCCC2)C1    > 30 µM

###

# Activity listing for each entry below
Target: Metabotropic glutamate receptor 5 (Homo sapiens, UniProt P41594)
Sequence (P41594 21-1212 limits assumed): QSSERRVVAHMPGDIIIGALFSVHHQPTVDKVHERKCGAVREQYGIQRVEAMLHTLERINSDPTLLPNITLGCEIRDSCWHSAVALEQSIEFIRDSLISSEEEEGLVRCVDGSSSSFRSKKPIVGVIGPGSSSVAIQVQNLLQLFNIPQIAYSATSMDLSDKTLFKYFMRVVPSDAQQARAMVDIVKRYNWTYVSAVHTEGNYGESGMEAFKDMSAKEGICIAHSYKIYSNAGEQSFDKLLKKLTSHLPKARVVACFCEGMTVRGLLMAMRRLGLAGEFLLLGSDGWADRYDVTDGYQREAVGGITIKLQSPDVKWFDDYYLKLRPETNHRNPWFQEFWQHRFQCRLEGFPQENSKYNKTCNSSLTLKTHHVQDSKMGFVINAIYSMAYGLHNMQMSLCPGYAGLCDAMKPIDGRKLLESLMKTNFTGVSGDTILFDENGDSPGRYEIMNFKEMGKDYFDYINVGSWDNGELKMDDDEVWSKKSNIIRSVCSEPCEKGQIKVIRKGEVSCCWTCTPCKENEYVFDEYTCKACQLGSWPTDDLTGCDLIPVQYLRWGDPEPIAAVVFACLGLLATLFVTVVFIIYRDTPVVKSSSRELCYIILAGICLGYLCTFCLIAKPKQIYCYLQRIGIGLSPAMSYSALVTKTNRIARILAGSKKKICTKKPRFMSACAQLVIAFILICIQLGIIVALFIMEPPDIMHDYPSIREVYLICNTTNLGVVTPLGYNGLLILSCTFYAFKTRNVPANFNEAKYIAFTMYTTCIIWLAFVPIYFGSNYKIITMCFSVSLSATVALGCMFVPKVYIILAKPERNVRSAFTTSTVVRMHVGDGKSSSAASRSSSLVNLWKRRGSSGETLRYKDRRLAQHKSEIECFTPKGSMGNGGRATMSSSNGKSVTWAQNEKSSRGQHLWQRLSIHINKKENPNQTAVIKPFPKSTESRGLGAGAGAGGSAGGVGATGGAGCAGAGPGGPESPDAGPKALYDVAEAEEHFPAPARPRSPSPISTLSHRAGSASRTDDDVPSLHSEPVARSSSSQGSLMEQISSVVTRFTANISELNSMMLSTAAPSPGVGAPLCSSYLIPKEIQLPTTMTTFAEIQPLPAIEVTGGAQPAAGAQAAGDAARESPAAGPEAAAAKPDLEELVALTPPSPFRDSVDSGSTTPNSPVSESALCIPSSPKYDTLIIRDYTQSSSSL
Experiment: Non-competitive antagonist activity at mGluR5 at 30 uM relative to glutamate
Format: functional
Parameters: scale not given: the % may be the effect or the level left
Value Type: Activity (%)

Cc1cc(C)c2c(N)c(C(=O)c3ccccc3)oc2n1    36
O=C(N1CCN(c2ccccn2)CC1)C12CC3CC(CC(C3)C1)C2    3.75
O=C(C1CCC1)N1CCCC2(CCCCC2)C1    1.12
Cc1cc(C)c2c(N)c(C(=O)c3ccc(F)cc3F)oc2n1    19.4
N#Cc1ccccc1N1CCN(C(=O)C23CC4CC(CC(C4)C2)C3)CC1    3.68

###

IC50, UniProt:Q14832, per-entry values.
Sequence (Q14832 whole entry): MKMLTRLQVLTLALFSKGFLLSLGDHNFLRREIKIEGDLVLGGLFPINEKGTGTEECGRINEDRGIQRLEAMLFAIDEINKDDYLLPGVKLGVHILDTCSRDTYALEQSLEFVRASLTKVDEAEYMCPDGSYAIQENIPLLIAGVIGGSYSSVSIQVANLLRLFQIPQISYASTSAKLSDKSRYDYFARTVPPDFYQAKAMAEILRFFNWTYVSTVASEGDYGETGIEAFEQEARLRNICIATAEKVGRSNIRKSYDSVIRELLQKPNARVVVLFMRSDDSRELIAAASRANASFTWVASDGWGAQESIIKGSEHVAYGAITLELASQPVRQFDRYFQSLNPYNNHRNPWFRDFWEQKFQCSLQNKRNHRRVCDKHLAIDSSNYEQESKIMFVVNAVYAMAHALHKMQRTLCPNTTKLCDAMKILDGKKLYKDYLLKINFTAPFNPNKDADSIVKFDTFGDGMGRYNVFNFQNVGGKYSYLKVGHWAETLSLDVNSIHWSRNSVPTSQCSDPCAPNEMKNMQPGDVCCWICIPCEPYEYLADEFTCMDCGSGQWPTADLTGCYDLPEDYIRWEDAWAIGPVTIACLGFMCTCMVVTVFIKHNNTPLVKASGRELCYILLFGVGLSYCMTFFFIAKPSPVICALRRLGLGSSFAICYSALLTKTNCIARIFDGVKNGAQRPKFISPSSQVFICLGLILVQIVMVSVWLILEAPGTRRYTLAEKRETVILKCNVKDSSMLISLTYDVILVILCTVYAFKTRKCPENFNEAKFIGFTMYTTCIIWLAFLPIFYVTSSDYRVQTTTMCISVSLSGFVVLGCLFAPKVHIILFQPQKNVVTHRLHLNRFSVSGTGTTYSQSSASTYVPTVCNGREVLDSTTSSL
Value Type: IC50

O=C(C1CCC1)N1CCCC2(CCCCC2)C1    > 30 µM
O=C(N1CCN(c2nccs2)CC1)C12CC3CC(CC(C3)C1)C2    > 30 µM

###

Target: Metabotropic glutamate receptor 4 (Homo sapiens)
Sequence (Q14833 whole entry): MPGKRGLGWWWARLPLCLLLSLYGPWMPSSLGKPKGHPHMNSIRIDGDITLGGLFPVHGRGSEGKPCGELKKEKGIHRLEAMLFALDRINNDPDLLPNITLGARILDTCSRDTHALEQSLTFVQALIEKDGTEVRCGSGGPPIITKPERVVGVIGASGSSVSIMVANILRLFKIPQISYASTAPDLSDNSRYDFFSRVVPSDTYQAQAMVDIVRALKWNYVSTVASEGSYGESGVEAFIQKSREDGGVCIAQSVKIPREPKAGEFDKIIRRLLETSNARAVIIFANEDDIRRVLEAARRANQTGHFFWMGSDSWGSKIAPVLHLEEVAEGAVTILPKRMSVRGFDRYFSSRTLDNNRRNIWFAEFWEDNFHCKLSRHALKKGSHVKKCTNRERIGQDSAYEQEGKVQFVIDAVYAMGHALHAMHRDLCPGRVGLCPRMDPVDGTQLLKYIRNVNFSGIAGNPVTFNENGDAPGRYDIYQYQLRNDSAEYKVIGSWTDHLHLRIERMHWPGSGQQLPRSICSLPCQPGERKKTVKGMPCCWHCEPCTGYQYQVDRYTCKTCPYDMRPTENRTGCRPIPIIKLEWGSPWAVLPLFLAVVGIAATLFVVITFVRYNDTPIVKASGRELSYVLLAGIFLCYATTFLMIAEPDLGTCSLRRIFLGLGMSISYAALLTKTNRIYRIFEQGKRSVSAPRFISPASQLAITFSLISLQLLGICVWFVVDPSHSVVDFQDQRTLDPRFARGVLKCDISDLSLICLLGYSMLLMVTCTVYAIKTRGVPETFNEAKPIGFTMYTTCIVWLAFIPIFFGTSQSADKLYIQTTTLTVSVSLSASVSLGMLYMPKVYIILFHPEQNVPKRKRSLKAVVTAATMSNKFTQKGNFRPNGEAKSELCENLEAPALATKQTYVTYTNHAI
Value Type: IC50

O=C(C1CCC1)N1CCCC2(CCCCC2)C1    > 30 µM
O=C(N1CCN(c2nccs2)CC1)C12CC3CC(CC(C3)C1)C2    > 30 µM

###

Target: Metabotropic glutamate receptor 8 (Homo sapiens)
Sequence (O00222 whole entry): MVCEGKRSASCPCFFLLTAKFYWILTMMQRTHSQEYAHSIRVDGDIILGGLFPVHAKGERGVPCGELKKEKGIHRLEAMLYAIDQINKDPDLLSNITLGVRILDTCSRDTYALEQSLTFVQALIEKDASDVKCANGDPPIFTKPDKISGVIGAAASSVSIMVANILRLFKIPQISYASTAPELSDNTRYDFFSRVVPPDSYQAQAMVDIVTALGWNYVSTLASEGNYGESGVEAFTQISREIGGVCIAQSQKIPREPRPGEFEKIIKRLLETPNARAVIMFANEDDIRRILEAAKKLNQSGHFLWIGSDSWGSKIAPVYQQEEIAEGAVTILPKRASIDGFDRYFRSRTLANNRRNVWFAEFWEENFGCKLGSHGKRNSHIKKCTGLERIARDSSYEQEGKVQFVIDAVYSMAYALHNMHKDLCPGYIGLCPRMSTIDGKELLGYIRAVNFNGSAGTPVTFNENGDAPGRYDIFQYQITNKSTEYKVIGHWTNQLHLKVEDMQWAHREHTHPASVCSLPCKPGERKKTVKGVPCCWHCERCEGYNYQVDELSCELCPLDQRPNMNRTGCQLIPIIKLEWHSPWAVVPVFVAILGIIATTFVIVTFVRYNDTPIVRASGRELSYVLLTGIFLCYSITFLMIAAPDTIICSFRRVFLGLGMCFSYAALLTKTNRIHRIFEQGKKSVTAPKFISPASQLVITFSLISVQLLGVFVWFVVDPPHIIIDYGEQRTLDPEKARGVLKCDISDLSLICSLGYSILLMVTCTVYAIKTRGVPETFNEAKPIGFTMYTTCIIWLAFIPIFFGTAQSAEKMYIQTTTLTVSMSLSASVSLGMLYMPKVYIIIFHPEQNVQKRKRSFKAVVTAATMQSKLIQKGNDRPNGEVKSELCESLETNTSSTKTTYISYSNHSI
Value Type: IC50

O=C(N1CCN(c2nccs2)CC1)C12CC3CC(CC(C3)C1)C2    > 30 µM
O=C(C1CCC1)N1CCCC2(CCCCC2)C1    > 30 µM
